Target Of Assay: T1, monkey TIM-3 protein with hFc tag (cTIM-3-hFc protein) (monkey; human)
T1 construct: Made in HEK293 cells; also called monkey TIM-3 extracellular domain protein; not shown: human IgG Fc fragment (hFc) of the pCpC vector
T1 chain: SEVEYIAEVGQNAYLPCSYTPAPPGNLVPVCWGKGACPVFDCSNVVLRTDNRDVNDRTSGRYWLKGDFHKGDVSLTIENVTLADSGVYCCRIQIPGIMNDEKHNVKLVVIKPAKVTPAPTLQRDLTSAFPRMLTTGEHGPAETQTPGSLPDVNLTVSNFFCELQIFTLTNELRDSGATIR
Experiment Notes: ELISA, coated cTIM-3-hFc; antibody 66.667 nM
Measurement Kind: OD450
Write the number on its own, no unit after it.

>  <Binder>
39E5H1 (TIM-3 antibody purified from hybridoma, chimeric antibody of Example 2) (antibody, V domains shown, From hybridoma of Harbour H2L2 transgenic mice: human variable regions, rat constant regions) VH: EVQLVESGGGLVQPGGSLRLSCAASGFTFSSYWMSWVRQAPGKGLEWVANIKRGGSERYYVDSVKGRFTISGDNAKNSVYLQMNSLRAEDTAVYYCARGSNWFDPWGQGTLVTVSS VL: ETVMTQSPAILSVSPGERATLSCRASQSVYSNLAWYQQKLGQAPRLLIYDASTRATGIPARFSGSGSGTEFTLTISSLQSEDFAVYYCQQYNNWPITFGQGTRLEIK

>  <OD450>
3.47

$$$$
>  <Binder>
134H3G6 (TIM-3 antibody purified from hybridoma, chimeric antibody of Example 2) (antibody, V domains shown, From hybridoma of Harbour H2L2 transgenic mice: human variable regions, rat constant regions) VH: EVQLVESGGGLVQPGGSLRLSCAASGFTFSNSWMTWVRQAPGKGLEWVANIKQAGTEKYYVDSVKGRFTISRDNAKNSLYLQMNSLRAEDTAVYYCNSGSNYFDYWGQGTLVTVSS VL: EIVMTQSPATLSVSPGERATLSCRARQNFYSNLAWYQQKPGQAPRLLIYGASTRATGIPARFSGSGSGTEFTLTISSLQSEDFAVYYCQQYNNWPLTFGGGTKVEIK

>  <OD450>
3.43

$$$$

## Task State the recorded OD450 for this entry: 34B6D8 (TIM-3 antibody purified from hybridoma, chimeric antibody of Example 2) (antibody, V domains shown, From hybridoma of Harbour H2L2 transgenic mice: human variable regions, rat constant regions) VH: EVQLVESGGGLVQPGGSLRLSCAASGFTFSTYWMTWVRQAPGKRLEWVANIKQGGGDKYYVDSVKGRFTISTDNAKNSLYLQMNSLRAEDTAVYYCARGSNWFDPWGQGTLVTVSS VL: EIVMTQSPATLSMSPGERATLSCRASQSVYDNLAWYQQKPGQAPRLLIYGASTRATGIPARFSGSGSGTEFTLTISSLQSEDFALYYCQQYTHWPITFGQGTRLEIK
## Result 3.52
